Each item that follows carries a reported pIC50.
Test System: human recombinant COX-2 (Homo sapiens (Human))
Sequence (P35354 18-604): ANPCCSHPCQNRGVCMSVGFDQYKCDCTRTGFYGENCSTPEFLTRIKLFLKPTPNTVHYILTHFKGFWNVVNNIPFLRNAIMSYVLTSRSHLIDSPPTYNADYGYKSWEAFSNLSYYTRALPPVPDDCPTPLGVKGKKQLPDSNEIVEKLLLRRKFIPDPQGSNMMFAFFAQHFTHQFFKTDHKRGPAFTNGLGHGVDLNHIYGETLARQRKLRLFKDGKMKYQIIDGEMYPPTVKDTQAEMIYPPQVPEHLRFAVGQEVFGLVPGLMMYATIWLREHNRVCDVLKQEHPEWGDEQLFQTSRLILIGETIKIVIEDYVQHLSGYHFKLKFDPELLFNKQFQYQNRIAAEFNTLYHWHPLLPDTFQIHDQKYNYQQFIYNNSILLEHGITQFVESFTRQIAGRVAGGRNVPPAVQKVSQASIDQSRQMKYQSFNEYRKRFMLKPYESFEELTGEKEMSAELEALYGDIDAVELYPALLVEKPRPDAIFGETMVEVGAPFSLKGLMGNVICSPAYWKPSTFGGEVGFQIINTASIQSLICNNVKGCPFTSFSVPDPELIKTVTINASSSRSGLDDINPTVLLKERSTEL
Procedure Details: In vitro COX assay (COX Inhibitor Screening Assay Kit), COX-2
Format: biochemical
Measurement Conditions: 5 μM arachidonic acid; read-out: human COX-2 IC50
pIC50: −log10 of the molar value.
Reported Property: pIC50

1. CCCCCCOC(=O)Nc1cccc(-c2ccc(C(C)C(=O)O)cc2F)c1 (stereo not shown); 6.77
2. CC(C(=O)O)c1ccc(-c2cccc(OC(=O)NCCCc3ccccc3)c2)c(F)c1 (stereo not shown); 5.21
3. CCCCCCNC(=O)Oc1cccc(-c2ccc(CC(=O)O)cc2F)c1; 6.62
4. CCCCCCCNC(=O)Oc1cccc(-c2ccc(C(C)C(=O)O)cc2F)c1 (stereo not shown); 6.49
5. CCCCCCCCNC(=O)Oc1cccc(-c2ccc(C(C)C(=O)O)cc2F)c1 (stereo not shown); 4.54
6. CCCCCNC(=O)Oc1cccc(-c2ccc(C(C)C(=O)O)cc2F)c1 (stereo not shown); 6.80
7. CC(C(=O)O)c1ccc(-c2cccc(OC(=O)NCCC3CCCCC3)c2)c(F)c1 (stereo not shown); 4.96

---

Test System: UniProtKB P05979
pIC50: −log10 of the molar value.
Reported Property: pIC50

1. CC(C)CNC(=O)Oc1cccc(-c2ccc(C(C)C(=O)O)cc2F)c1 (centres unmarked) [Example 3]; 5.09
2. CCCCCCNC(=O)Oc1cccc(-c2ccc(C(C)CO)cc2F)c1 (centres unmarked) [Example 15]; 5.96
3. CC(C(=O)O)c1ccc(-c2cccc(OC(=O)NCc3ccccc3)c2)c(F)c1 (centres unmarked) [Example 6]; 5.89
4. CC(C(=O)O)c1ccc(-c2cccc(OC(=O)NCCc3ccccc3)c2)c(F)c1 (centres unmarked) [Example 7]; 5.20
5. CCCCCCOC(=O)Nc1cccc(-c2ccc(C(C)C(=O)O)cc2F)c1 (centres unmarked) [Example 18]; 7.52
6. CC(C(=O)O)c1ccc(-c2cccc(OC(=O)NCC3CCCCC3)c2)c(F)c1 (centres unmarked) [Example 4]; 6.22
7. CCCCCCNC(=O)Oc1cccc(-c2ccc(C(C)C(=O)O)cc2F)c1 (single isomer, unassigned; (+)) [Example 20]; 11.00
8. CC(C(=O)O)c1ccc(-c2cccc(OC(=O)NC3CCCC3)c2)c(F)c1 (centres unmarked) [Example 2]; 5.36

---

Each item that follows carries a reported pIC50.
Test System: Rat FAAH (Rattus norvegicus (Rat), UniProt P97612)
Sequence (P97612 whole entry): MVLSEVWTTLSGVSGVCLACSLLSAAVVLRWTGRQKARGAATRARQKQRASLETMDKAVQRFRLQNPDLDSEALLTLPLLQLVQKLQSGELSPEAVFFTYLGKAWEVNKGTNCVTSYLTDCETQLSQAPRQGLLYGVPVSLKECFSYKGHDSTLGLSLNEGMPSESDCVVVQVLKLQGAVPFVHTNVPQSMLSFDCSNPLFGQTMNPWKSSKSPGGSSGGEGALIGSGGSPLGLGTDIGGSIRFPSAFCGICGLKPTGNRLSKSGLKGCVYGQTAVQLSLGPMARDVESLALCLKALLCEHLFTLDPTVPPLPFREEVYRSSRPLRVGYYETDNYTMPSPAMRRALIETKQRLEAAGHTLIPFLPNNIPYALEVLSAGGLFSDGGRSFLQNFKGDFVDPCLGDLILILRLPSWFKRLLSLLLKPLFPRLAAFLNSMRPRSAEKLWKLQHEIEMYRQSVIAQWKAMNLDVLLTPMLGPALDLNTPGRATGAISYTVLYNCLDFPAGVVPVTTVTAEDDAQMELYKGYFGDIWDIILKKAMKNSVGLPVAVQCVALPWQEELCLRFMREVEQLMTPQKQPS
pIC50: −log10 of the molar value.
Reported Property: pIC50

1. CC(C(=O)O)c1ccc(-c2cccc(OC(=O)NCCCCc3ccccc3)c2)c(F)c1 (centres unmarked); 7.57
2. CCCCCCCNC(=O)Oc1cccc(-c2ccc(C(C)C(=O)O)cc2F)c1 (centres unmarked); 7.96
3. CC(C(=O)O)c1ccc(-c2cccc(OC(=O)NCCCc3ccccc3)c2)c(F)c1 (centres unmarked); 7.05
4. CC(C(=O)O)c1ccc(-c2cccc(OC(=O)NCC3CCCCC3)c2)c(F)c1 (centres unmarked); 6.44
5. CC(C(=O)O)c1ccc(-c2cccc(OC(=O)NCCc3ccccc3)c2)c(F)c1 (centres unmarked); 6.77
6. CC(C(=O)O)c1ccc(-c2cccc(OC(=O)NCCC3CCCCC3)c2)c(F)c1 (centres unmarked); 7.74
7. CCCCCCNC(=O)Oc1ccccc1-c1ccc(C(C)C(=O)O)cc1F (centres unmarked); 5.66
8. CCCCCNC(=O)Oc1cccc(-c2ccc(C(C)C(=O)O)cc2F)c1 (centres unmarked); 6.24

---

Test System: Rat FAAH (Rattus norvegicus (Rat), UniProt P97612)
Could you mark each record 1 if its IC50 falls strictly under 5 µM, and -1 if it equals or exceeds it?

1) CC(C)CNC(=O)Oc1cccc(-c2ccc(C(C)C(=O)O)cc2F)c1 (stereo not drawn); -1
2) CCCCCCCCNC(=O)Oc1cccc(-c2ccc(C(C)C(=O)O)cc2F)c1 (stereo not drawn); 1
3) CC(C(=O)O)c1ccc(-c2cccc(OC(=O)NC3CCCCC3)c2)c(F)c1 (stereo not drawn); -1
4) CC(C(=O)O)c1ccc(-c2cccc(OC(=O)NCc3ccccc3)c2)c(F)c1 (stereo not drawn); 1
5) CCCCCCNC(=O)Oc1cccc(-c2ccc(C(C)CO)cc2F)c1 (stereo not drawn); 1
6) CCCCCCOC(=O)Nc1cccc(-c2ccc(C(C)C(=O)O)cc2F)c1 (stereo not drawn); -1
7) CC(C(=O)O)c1ccc(-c2cccc(OC(=O)NC3CCCC3)c2)c(F)c1 (stereo not drawn); 1
8) CCCCNC(=O)Oc1cccc(-c2ccc(C(C)C(=O)O)cc2F)c1 (stereo not drawn); -1
9) CCCCCCNC(=O)Oc1cccc(-c2ccc(CC(=O)O)cc2F)c1; 1

---

pIC50: −log10 of the molar value.
# pIC50 per entry for UniProtKB O00519
Reported Property: pIC50

1) CC(C)CNC(=O)Oc1cccc(-c2ccc(C(C)C(=O)O)cc2F)c1 (stereo not drawn); 5.80
2) CCCCCCCNC(=O)Oc1cccc(-c2ccc(C(C)C(=O)O)cc2F)c1 (stereo not drawn); 8.22
3) CC(C(=O)O)c1ccc(-c2cccc(OC(=O)NCCC3CCCCC3)c2)c(F)c1 (stereo not drawn); 8.05
4) CCCCNC(=O)Oc1cccc(-c2ccc(C(C)C(=O)O)cc2F)c1 (stereo not drawn); 5.82
5) CCCCCCNC(=O)Oc1ccccc1-c1ccc(C(C)C(=O)O)cc1F (stereo not drawn); 6.13
6) CC(C(=O)O)c1ccc(-c2cccc(OC(=O)NCCc3ccccc3)c2)c(F)c1 (stereo not drawn); 7.15
7) CCCCCCNC(=O)Oc1cccc(-c2ccc(C(C)CO)cc2F)c1 (stereo not drawn); 8.04
8) CC(C(=O)O)c1ccc(-c2cccc(OC(=O)NCCCc3ccccc3)c2)c(F)c1 (stereo not drawn); 7.66
9) CC(C(=O)O)c1ccc(-c2cccc(OC(=O)NCc3ccccc3)c2)c(F)c1 (stereo not drawn); 5.14

---

Each item that follows carries a reported pIC50.
Test System: ovine COX-1 (Ovis aries (Sheep), UniProt P05979)
Sequence (P05979 25-600): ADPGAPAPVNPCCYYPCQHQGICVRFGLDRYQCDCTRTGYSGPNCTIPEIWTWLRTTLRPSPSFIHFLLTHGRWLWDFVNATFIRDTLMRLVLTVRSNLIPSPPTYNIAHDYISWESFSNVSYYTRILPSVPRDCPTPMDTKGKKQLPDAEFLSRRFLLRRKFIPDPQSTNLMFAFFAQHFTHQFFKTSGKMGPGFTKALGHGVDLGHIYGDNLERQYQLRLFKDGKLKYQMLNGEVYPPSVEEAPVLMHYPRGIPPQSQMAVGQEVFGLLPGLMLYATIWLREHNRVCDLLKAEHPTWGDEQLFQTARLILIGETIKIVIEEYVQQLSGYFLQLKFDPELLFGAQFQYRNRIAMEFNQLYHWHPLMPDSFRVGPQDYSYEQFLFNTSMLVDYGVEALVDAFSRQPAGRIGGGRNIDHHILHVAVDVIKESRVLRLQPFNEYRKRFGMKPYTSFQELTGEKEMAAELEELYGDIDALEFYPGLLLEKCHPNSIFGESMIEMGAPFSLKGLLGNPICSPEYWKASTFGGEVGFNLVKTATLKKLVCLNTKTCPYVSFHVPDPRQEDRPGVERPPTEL
pIC50: −log10 of the molar value.
Reported Property: pIC50

1. CCCCCCCNC(=O)Oc1cccc(-c2ccc(C(C)C(=O)O)cc2F)c1 (stereo not drawn); 6.43
2. CC(C(=O)O)c1ccc(-c2cccc(OC(=O)NCCC3CCCCC3)c2)c(F)c1 (stereo not drawn); 6.82
3. CCCCCCNC(=O)Oc1cccc(-c2ccc(CC(=O)O)cc2F)c1; 5.68
4. CCCCCCNC(=O)Oc1cccc(-c2ccc(C(C)C(=O)O)cc2F)c1 (stereo not drawn) [Example 12]; 7.92
5. CC(C(=O)O)c1ccc(-c2cccc(OC(=O)NC3CCCCC3)c2)c(F)c1 (stereo not drawn); 5.10
6. CC(C(=O)O)c1ccc(-c2cccc(OC(=O)NCCCc3ccccc3)c2)c(F)c1 (stereo not drawn); 6.24
7. CCCCCCCCNC(=O)Oc1cccc(-c2ccc(C(C)C(=O)O)cc2F)c1 (stereo not drawn); 6.00
8. CC(C(=O)O)c1ccc(-c2cccc(OC(=O)NCCCCc3ccccc3)c2)c(F)c1 (stereo not drawn); 5.43
9. CCCCCNC(=O)Oc1cccc(-c2ccc(C(C)C(=O)O)cc2F)c1 (stereo not drawn); 7.70

---

Test System: human FAAH-1 (Homo sapiens (Human), UniProt O00519)
Sequence (O00519 whole entry): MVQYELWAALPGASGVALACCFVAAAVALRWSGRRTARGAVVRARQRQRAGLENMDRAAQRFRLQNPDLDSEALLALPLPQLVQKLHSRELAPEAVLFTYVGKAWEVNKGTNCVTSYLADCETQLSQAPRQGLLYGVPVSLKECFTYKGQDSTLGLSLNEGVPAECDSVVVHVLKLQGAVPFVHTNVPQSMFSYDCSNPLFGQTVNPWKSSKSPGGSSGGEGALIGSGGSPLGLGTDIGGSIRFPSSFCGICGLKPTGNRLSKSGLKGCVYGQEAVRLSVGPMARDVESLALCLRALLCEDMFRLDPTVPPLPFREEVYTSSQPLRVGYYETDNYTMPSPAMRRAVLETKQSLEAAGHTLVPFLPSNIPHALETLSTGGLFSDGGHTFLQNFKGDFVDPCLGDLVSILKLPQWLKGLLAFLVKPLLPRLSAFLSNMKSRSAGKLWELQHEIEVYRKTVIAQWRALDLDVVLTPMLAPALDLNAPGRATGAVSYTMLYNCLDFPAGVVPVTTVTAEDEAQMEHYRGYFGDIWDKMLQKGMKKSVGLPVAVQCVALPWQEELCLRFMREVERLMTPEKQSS
pIC50: −log10 of the molar value.
Reported Property: pIC50

1. CC(C(=O)O)c1ccc(-c2cccc(OC(=O)NC3CCCC3)c2)c(F)c1 (centres unmarked) [Example 2]; 5.74
2. CCCCCCCCNC(=O)Oc1cccc(-c2ccc(C(C)C(=O)O)cc2F)c1 (centres unmarked) [Example 14]; 8.40
3. CCCCCNC(=O)Oc1cccc(-c2ccc(C(C)C(=O)O)cc2F)c1 (centres unmarked) [Example 11]; 7.04
4. CC(C(=O)O)c1ccc(-c2cccc(OC(=O)NC3CCCCC3)c2)c(F)c1 (centres unmarked) [Example 1]; 5.74
5. CCCCCCOC(=O)Nc1cccc(-c2ccc(C(C)C(=O)O)cc2F)c1 (centres unmarked) [Example 18]; 4.68
6. CCCCCCNC(=O)Oc1cccc(-c2ccc(CC(=O)O)cc2F)c1 [Example 16]; 7.80
7. CC(C(=O)O)c1ccc(-c2cccc(OC(=O)NCCCCc3ccccc3)c2)c(F)c1 (centres unmarked) [Example 9]; 7.89
8. CC(C(=O)O)c1ccc(-c2cccc(OC(=O)NCC3CCCCC3)c2)c(F)c1 (centres unmarked) [Example 4]; 6.55
